Tested on: DENV1 (Den1 BR/90) infection in Huh-7.5
Experiment: image-based dengue HT/HCA, 10-pt dose-response hit confirmation, DENV1
Format: cell-based
Conditions: Dengue virus, DENV1, Huh7.5; Huh-7.5, M.O.I. 0.5, 96 hrs; read-out: EC50 DENV1
propertyName: pEC50
A value of pEC50 is the negative decimal logarithm of a concentration given in moles per litre.

>>> df
                                   molecule                          systemundertest  endpointvalue
0  COc1ccc(CC(N)c2csc(Nc3ncccn3)n2)cc1 (stereo not drawn)  DENV1 (Den1 BR/90) infection in Huh-7.5           6.05
1  CS(=O)(=O)c1cnc(Nc2nc(C(N)Cc3ccc(Cl)cc3)cs2)nc1 (stereo not drawn)  DENV1 (Den1 BR/90) infection in Huh-7.5           5.77
2  NC(c1csc(Nc2ncccn2)n1)c1ccccc1Cl (stereo not drawn)  DENV1 (Den1 BR/90) infection in Huh-7.5           5.77
3  COc1cccc(Nc2nc(C(N)CC(C)C)cs2)n1 (stereo not drawn)  DENV1 (Den1 BR/90) infection in Huh-7.5           5.48
4  COc1ccc(CC(N)c2csc(Nc3nccc(NCc4ccco4)n3)n2)cc1 (stereo not drawn)  DENV1 (Den1 BR/90) infection in Huh-7.5           5.41
5  NC(Cc1ccc(C(F)(F)F)cc1)c1csc(Nc2nccc(NCCCO)n2)n1 (stereo not drawn)  DENV1 (Den1 BR/90) infection in Huh-7.5           5.14
6  CCCc1cnc(Nc2nc(C(N)Cc3ccccc3)cs2)nc1 (stereo not drawn)  DENV1 (Den1 BR/90) infection in Huh-7.5           6.00

We next turn to a different molecule, shown below.
Q: // query pEC50 value for entry NC(Cc1ccc(C(F)(F)F)cc1)c1csc(Nc2ncccn2)n1 (stereo not drawn)
Ans: 5.82

====

Test: compound toxicity, resazurin reduction assay in uninfected Huh-7.5
Type: cell-based
Conditions: human, uninfected Huh-7.5 cells, Huh-7.5 without viral infection, 10-pt DRC
propertyName: CC50 at 72 h (µM)
Please respond with the number in µM and leave the unit unwritten.

>>> df
                                   molecule  endpointvalue
0  NC(Cc1ccc(C(F)(F)F)cc1)c1csc(Nc2nccc(NCCCO)n2)n1 (centres unmarked)             15

Q: // query CC50 at 72 h value for entry COc1ccc(CC(N)c2csc(Nc3nccc(NCc4ccco4)n3)n2)cc1 (centres unmarked)
Ans: 25

Q: Again, but for CCCc1cnc(Nc2nc(C(N)Cc3ccccc3)cs2)nc1 (centres unmarked)
Ans: 44

Q: Again, but for CS(=O)(=O)c1cnc(Nc2nc(C(N)Cc3ccc(Cl)cc3)cs2)nc1 (centres unmarked)
Ans: 21

Q: Again, but for COc1cccc(Nc2nc(C(N)CC(C)C)cs2)n1 (centres unmarked)
Ans: 23

Q: Again, but for NC(Cc1ccccc1)c1csc(Nc2ccccn2)n1 (centres unmarked)
Ans: 43

Q: Again, but for NC(Cc1ccc(Cl)cc1)c1csc(Nc2ccc(S(N)(=O)=O)cc2)n1 (centres unmarked)
Ans: 29

====

Tested on: BR DEN2 01-01 infection of Huh-7.5
Experiment: assay validation with reference compounds, 10-pt DRC of percent infection
Assay type: cell-based, Dengue virus
Conditions: percent infection normalized against DENV2-infected Huh-7.5, M.O.I. 0.5; read-out: IC50
Listed here: items and their measured IC50.

Recorded IC50, per entry:
                                   compound  endpointvalue
0  Cc1c(-c2ccc(O)cc2)nn(-c2ccc(O)cc2)c1-c1ccc(OCCN2CCCCC2)cc1 [MPP]        6.85 µM
1  CN1c2cc3c(cc2N=C(c2ccc(C(=O)O)cc2)c2ccccc21)C(C)(C)CCC3(C)C [LE 135]        11.7 µM
2  C=CCNC(=O)c1cc([N+](=O)[O-])cc2c(=O)[nH]c(Nc3ccc(Cl)c(Cl)c3)nc12 [AZ 10417808]        82.3 µM

We next turn to a different compound, shown below.
Q: // query IC50 value for entry CCN(CC)CC1CCN(c2ncc3ncnc(Nc4ccc(F)c(Cl)c4)c3n2)CC1 [BIBU 1361]
Ans: 4.34 µM

====

Tested on: Huh-7.5
Assay: assay validation with reference compounds, percent cell number in DENV2-infected Huh-7.5
Details: percent cell number normalized against MOCK-infected Huh-7.5, DENV2-infected cells
Listed here: items and their measured CC50.
Please respond with the number in µM and leave the unit unwritten.

Q: // query CC50 value for entry CN1c2cc3c(cc2N=C(c2ccc(C(=O)O)cc2)c2ccccc21)C(C)(C)CCC3(C)C
Ans: 23.9

Q: Again, but for Cc1c(-c2ccc(O)cc2)nn(-c2ccc(O)cc2)c1-c1ccc(OCCN2CCCCC2)cc1
Ans: 5.86

Q: Again, but for C=CCNC(=O)c1cc([N+](=O)[O-])cc2c(=O)[nH]c(Nc3ccc(Cl)c(Cl)c3)nc12
Ans: 148

Q: Again, but for CCN(CC)CC1CCN(c2ncc3ncnc(Nc4ccc(F)c(Cl)c4)c3n2)CC1
Ans: 4.5

====

System: BR DEN2 01-01 infection of Huh-7.5
Assay: assay validation with reference compounds, 10-pt DRC of percent infection
Format: cell-based, Dengue virus
Settings: Dengue virus, DENV2, Huh7.5
propertyName: IC50
Number first, unit second: that is the form wanted.

Q: // query IC50 value for entry CCN(CC)CCCC(C)Nc1ccnc2cc(Cl)ccc12 (stereo not shown)
Ans: 17.4 µM

====

System: DENV3 (BR DEN3 290-02) infection in Huh-7.5
Experiment: image-based dengue HT/HCA, 10-pt dose-response hit confirmation, DENV3
Format: cell-based
Details: Dengue virus, DENV3, Huh7.5; Huh-7.5, M.O.I. 0.5, 96 hrs; read-out: EC50 DENV3
propertyName: EC50 (nM)
Please respond with the number in nM and leave the unit unwritten.

Recorded EC50, per entry:
>>> df
                                   molecule                           systemundertest  endpointvalue
0  NC(Cc1ccc(Cl)cc1)c1csc(Nc2ccc(S(N)(=O)=O)cc2)n1 (stereo not shown)  DENV3 (BR DEN3 290-02) infection in Huh-7.5           6200
1  NC(c1csc(Nc2ncccn2)n1)c1ccccc1Cl (stereo not shown)  DENV3 (BR DEN3 290-02) infection in Huh-7.5           2300
2  COc1cccc(Nc2nc(C(N)CC(C)C)cs2)n1 (stereo not shown)  DENV3 (BR DEN3 290-02) infection in Huh-7.5           2900
3  Nc1ccc(CC(N)c2csc(Nc3ncccn3)n2)cc1 (stereo not shown)  DENV3 (BR DEN3 290-02) infection in Huh-7.5           1000
4  CS(=O)(=O)c1cnc(Nc2nc(C(N)Cc3ccc(Cl)cc3)cs2)nc1 (stereo not shown)  DENV3 (BR DEN3 290-02) infection in Huh-7.5           1600

Q: Value wanted: EC50 (DENV3 (BR DEN3 290-02) infection in Huh-7.5) of entry COc1ccc(CC(N)c2csc(Nc3ncccn3)n2)cc1 (stereo not shown)
Ans: 2600

Q: Again, but for NC(Cc1ccc(C(F)(F)F)cc1)c1csc(Nc2nccc(NCCCO)n2)n1 (stereo not shown)
Ans: 4800

Q: Again, but for NC(Cc1ccc(C(F)(F)F)cc1)c1csc(Nc2ncccn2)n1 (stereo not shown)
Ans: 3100

Q: Again, but for NC(Cc1ccccc1)c1csc(Nc2ccccn2)n1 (stereo not shown)
Ans: 5700

====

Tested on: DENV2 (BR DEN2 01-01) infection in Huh-7.5
Assay: image-based dengue HT/HCA, 10-pt dose-response hit confirmation, DENV2
Assay type: cell-based
Settings: Dengue virus, DENV2, Huh7.5; Huh-7.5, M.O.I. 0.5, 96 hrs; read-out: EC50 DENV2
Listed here: items and their measured pEC50.
A value of pEC50 is the negative decimal logarithm of a concentration given in moles per litre.

Recorded pEC50, per entry:
In [3]: df
Out[3]:
                                   compound  endpointvalue
0  NC(Cc1ccccc1)c1csc(Nc2ccccn2)n1 (stereo not shown) [CND1043]           5.51
1  NC(Cc1ccc(C(F)(F)F)cc1)c1csc(Nc2nccc(NCCCO)n2)n1 (stereo not shown) [CND1172]           4.98
2  COc1cccc(Nc2nc(C(N)CC(C)C)cs2)n1 (stereo not shown) [CND1057]           6.00

Q: // query pEC50 value for entry COc1ccc(CC(N)c2csc(Nc3ncccn3)n2)cc1 (stereo not shown) [CND1201]
Ans: 5.12

Q: Again, but for NC(Cc1ccc(Cl)cc1)c1csc(Nc2ccc(S(N)(=O)=O)cc2)n1 (stereo not shown) [CND0968]
Ans: 5.19

Q: Again, but for CCCc1cnc(Nc2nc(C(N)Cc3ccccc3)cs2)nc1 (stereo not shown) [CND0975]
Ans: 5.26

Q: Again, but for CS(=O)(=O)c1cnc(Nc2nc(C(N)Cc3ccc(Cl)cc3)cs2)nc1 (stereo not shown) [CND1244]
Ans: 5.54

Q: Again, but for Nc1ccc(CC(N)c2csc(Nc3ncccn3)n2)cc1 (stereo not shown) [CND1243]
Ans: 5.21

Q: Again, but for NC(c1csc(Nc2ncccn2)n1)c1ccccc1Cl (stereo not shown) [CND1203]
Ans: 5.39

Q: Again, but for NC(Cc1ccc(C(F)(F)F)cc1)c1csc(Nc2ncccn2)n1 (stereo not shown) [CND1081]
Ans: 5.68
